# target-system: Recombinant Human CTLA4-Fc chimera (R&D systems) (human) (UniProt P16410)
# test-method-notes: ELISA, signal over SA
readout: ELISA S/N(SA)

Example cases with answers are listed next.
> print(dat)
                                     binder  numeric.readout
1  GGCRHPFLPIWSHHFCVC (peptide, not shown: large carriers; small tags and cut ends) [C4m#19-5th4w-NN6-11]             22.1
2  GGCRHPWLPIVSYHFCSS (peptide, not shown: large carriers; small tags and cut ends) [C4m#19-5th4w-NN6-90]             21.2
3  GGCWHPYLPIQSLHFCPF (peptide, not shown: large carriers; small tags and cut ends) [C4m#19-5th4w-NN6-5-1]             14.7
4  GGCWHPFLPIMSFHFCPY (peptide, not shown: large carriers; small tags and cut ends) [C4m#19-5th4w-NN6-30]             16.7

I. GGCFHPYLPIRSWHFCSR (peptide, not shown: large carriers; small tags and cut ends) [C4m#19-5th4w-NN6-81]
II. GGCRHPYLPIFSAHFCRS (peptide, not shown: large carriers; small tags and cut ends) [C4m#19-5th4w-NN6-1]
III. GGCWHPVLPIRSIHFCGC (peptide, not shown: large carriers; small tags and cut ends) [C4m3127-4th-NNS6-37]
IV. GGCFHPWLPISSLHFCPF (peptide, not shown: large carriers; small tags and cut ends) [C4m#19-5th2w-NNS6-4]
## Task Rank the 4 binders: largest ELISA S/N(SA) first, smallest last. The labels, placed in the requested order, form the answer.
## Result I, II, IV, III
(I: 32.3, II: 16.1, IV: 6.3, III: 3.5)

1. GGCWHPFLPILSLHFCSR (peptide, not shown: large carriers; small tags and cut ends) [C4m#19-5th4w-NN6-65]
2. GGCWHPVLPIRSCHFCAV (peptide, not shown: large carriers; small tags and cut ends) [C4m#19-5th4w-NN6-79]
3. GGCMHPYLPIRSFHFCSC (peptide, not shown: large carriers; small tags and cut ends) [C4m#19-5th4w-NN6-49]
## Task Please order the records by their reported ELISA S/N(SA), lowest number first. The labels, placed in the requested order, form the answer.
## Result 3, 1, 2
(3: 4, 1: 12.5, 2: 24.9)

a. GGCMHPFLPIRSMHFCPL (peptide, not shown: large carriers; small tags and cut ends) [C4m#19-5th4w-NN6-70]
b. GGCWHPFLPILSWHFCGR (peptide, not shown: large carriers; small tags and cut ends) [C4m#19-5th2w-NNS6-30]
## Task # returns the entry with the larger ELISA S/N(SA); inputs a and b I would appreciate it if you answered with the label of your choice.
## Result a
